test system: Lung_H1703; experiment: Cell proliferation assay (ATPlite); assay type: cell-based; settings: 72 hours, 0.5% fetal bovine serum
pIC50: −log10 of the molar value.
OBSERVABLE: pIC50

In [3]: df
Out[3]:
                  compound_structure_string  system_name  observable  reported_measurement
0  C#Cc1cccc(Nc2ncnc3cc(OC)c(NC(=O)CCCCCCC(=O)NO)cc23)c1   Lung_H1703       pIC50          5.00 to 6.00

* * *

IC50 values, listed per item
tested on: Pancreas_CFPAC; assay: Cell proliferation assay (ATPlite); type: cell-based; conditions: 72 hours, 0.5% fetal bovine serum
OBSERVABLE: IC50

In [3]: df
Out[3]:
                  compound_structure_string  reported_measurement
0  COc1cc2ncnc(N[C@H](C)c3ccccc3)c2cc1OCCCCCCC(=O)NO      1000 to 10000 nM
1  COc1cc2ncnc(N[C@H](C)c3ccccc3)c2cc1OCCCCCC(=O)NO      1000 to 10000 nM
2  C#Cc1cccc(Nc2ncnc3cc(OC)c(OCCCCCCC(=O)NO)cc23)c1        100 to 1000 nM
3  COc1cc2ncnc(Nc3ccc(F)c(Cl)c3)c2cc1NC(=O)CCCCCCC(=O)NO      1000 to 10000 nM
4  COCCOc1cc2ncnc(Nc3ccc(F)c(Cl)c3)c2cc1NC(=O)CCCCCCC(=O)NO      1000 to 10000 nM
5  O=C(CCCCCCOc1ccc2ncnc(Nc3ccc(F)c(Cl)c3)c2c1)NO        100 to 1000 nM
